Target: α4β1 integrin (Homo sapiens, UniProt P05556+P13612)
Construct: Ramos cells fluorescently labeled with calcein; endogenous in cells; host or cells: Ramos cells
Sequence (P13612 34-1032): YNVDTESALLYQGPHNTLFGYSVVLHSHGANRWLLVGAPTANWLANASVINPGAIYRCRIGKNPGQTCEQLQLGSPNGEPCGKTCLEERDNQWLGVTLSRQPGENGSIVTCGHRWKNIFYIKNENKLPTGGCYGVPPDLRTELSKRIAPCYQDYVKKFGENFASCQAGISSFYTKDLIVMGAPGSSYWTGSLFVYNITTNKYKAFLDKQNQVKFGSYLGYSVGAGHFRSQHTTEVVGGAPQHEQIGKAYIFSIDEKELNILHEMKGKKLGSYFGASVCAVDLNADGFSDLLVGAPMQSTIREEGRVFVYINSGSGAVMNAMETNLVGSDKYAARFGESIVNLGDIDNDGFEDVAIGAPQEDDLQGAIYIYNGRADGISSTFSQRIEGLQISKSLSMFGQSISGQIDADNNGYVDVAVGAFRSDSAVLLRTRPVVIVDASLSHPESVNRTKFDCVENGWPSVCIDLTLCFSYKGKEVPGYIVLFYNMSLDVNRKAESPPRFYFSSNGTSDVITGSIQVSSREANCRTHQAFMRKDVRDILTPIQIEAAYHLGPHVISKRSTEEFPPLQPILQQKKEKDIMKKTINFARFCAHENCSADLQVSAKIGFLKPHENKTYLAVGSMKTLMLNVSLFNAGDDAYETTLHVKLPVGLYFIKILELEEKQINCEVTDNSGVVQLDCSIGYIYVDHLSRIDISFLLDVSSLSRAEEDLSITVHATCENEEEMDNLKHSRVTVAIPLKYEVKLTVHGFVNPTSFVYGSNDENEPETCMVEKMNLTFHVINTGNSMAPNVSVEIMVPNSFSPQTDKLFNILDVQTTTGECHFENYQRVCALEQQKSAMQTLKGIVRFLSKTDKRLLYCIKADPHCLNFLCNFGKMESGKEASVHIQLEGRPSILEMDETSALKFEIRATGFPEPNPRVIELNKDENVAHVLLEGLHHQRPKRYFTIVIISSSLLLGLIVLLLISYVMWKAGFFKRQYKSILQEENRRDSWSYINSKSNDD
Sequence (P05556 21-798): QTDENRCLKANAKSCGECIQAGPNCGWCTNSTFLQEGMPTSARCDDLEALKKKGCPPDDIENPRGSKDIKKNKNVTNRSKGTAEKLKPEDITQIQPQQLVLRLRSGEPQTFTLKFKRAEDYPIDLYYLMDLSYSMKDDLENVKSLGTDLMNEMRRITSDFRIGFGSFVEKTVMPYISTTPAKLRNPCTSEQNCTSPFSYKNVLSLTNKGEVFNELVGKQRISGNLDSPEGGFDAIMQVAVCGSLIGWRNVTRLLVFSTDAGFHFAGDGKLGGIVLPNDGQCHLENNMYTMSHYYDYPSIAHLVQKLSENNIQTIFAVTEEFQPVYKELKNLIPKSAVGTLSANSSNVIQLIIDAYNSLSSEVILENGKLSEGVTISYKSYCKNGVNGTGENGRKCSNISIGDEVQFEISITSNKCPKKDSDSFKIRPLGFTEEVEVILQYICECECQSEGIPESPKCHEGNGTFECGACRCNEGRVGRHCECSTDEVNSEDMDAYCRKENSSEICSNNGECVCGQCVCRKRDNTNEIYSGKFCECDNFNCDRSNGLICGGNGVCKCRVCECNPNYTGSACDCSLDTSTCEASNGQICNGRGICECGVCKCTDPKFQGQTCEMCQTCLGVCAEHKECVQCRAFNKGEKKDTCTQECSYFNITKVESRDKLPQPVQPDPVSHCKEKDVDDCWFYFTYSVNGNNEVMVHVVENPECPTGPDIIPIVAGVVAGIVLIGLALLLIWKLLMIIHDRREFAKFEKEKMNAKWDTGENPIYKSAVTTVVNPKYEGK
Assay: Inhibition of adhesion of calcein-labeled Ramos cells to CS1 (fibronectin) peptide-conjugated ovalbumin
Assay type: cell-based
Conditions: Ramos, Table 1; compound at a concentration of 100 μM; read-out: % A (percent inhibition of cell adhesion)
Quick reference: inhibition at 100 µM of the listed items.
measure: inhibition at 100 µM (%)

>>> print(df.to_string())
                                   compound               measure  test_result
0  O=C(O)C[C@H](NC(=O)N[C@@H](CCCCNC(=O)OCc1ccccc1)C(=O)NCCc1ccccn1)c1ccc2c(c1)OCO2  inhibition at 100 µM          100
1  COc1ccc(CNC(=O)[C@@H](CC(C)C)NC(=O)NC(CC(=O)O)c2ccc3c(c2)OCO3)cc1 (some centres unmarked)  inhibition at 100 µM           66
2  CC(C)C[C@@H](CSc1ccccc1)NC(=O)N[C@@H](CC(=O)O)c1ccc2c(c1)OCO2  inhibition at 100 µM          100
3  CC(C)[C@H](CSCc1ccccc1)NC(=O)NC(CC(=O)O)c1ccc2c(c1)OCO2 (some centres unmarked)  inhibition at 100 µM           83
4  COC(=O)NCCCC[C@@H](CSc1ccccc1)NC(=O)N[C@@H](CC(=O)O)c1ccc2c(c1)OCO2  inhibition at 100 µM          100

* * *

Target: α4β1 integrin (Homo sapiens, UniProt P05556+P13612)
Construct: Ramos cells fluorescently labeled with calcein; endogenous in cells; host or cells: Ramos cells
Experiment: Inhibition of adhesion of calcein-labeled Ramos cells to CS1 (fibronectin) peptide-conjugated ovalbumin
Assay type: cell-based
Conditions: Table 1; dose required to give 50% inhibition; Ramos cell adhesion to CS1-ovalbumin, 30 minutes at 37° C
pIC50: −log10 of the molar value.
Quick reference: pIC50 of the listed items.
measure: pIC50

>>> df
                                   compound  qual  test_result
0  CC(C)[C@@H](CSc1ccccc1)NC(=O)N[C@H](CC(=O)O)c1ccc2c(c1)OCO2     =         4.46
1  O=C(O)C[C@H](NC(=O)N[C@@H](CCSc1ccccc1)CSc1ccccc1)c1ccc2c(c1)OCO2     =         6.52
2  CCCC[C@@H](CSc1cccc(NCc2ccccc2C)c1)OC(=O)N[C@@H](CC(=O)O)c1ccc2c(c1)OCO2     =         4.60
3  COC(=O)NCCCC[C@H](NC(=O)N[C@@H](CC(=O)O)c1ccc2c(c1)OCO2)C(=O)NCCc1ccc(O)cc1     =         5.22
4  CC(C)[C@@H](CSCc1ccccc1)NC(=O)NC(CC(=O)O)c1ccc2c(c1)OCO2 (some centres unmarked)     =         5.00
5  CCCSC[C@H](NC(=O)N[C@@H](CC(=O)O)c1ccc2c(c1)OCO2)c1ccccc1     =         4.60
6  COC(=O)NCCCC[C@@H](CS(=O)(=O)c1ccccc1)NC(=O)N[C@@H](CC(=O)O)c1ccc2c(c1)OCO2     <         4.00
7  CSCC[C@@H](CSc1ccc(NS(=O)(=O)c2ccc(C)cc2)cc1)NC(=O)N[C@@H](CC(=O)O)c1ccc2c(c1)OCO2     =         6.40
